Measured values drawn from patent US20230220053A1 for this set.

- TEST_TARGET: S1-Fc (SARS-CoV-2 S1 protein, Fc fusion) (SARS-CoV-2, UniProt P0DTC2 16-685)
- ASSAY_NAME: SPR (Biacore T200), S1 captured on anti-human Fc chip, scFv injected
MEASURED_ENDPOINT: kon

Record kon for all entries; do not skip any.
1. 2020EP64-G10 scFv (scFv) scFv: QVQLVQSGGGVVQPGRSLRLSCAASGFTFSSYAMHWVRQAPGKGLEWVAVISYDGSNKYYADSVKGRFTISRDNSKNTLYLQMNSLRAEDTAVYYCARDGEDGYNYISPFDYWGQGTLVTVSSGGGGSGGGGSGGGRSSYELTQPPSVSVAPGETARITCRGNDIGSKSVHWYQQKPGQAPVLVLYYDSDRPSGIPERFSGSNSGNTATLTISSVEAGDEADYYCHVWDIDVVFGGGTKLTVL
2. 2020EP66-A07 scFv (scFv) scFv: EVQLVQSGAEVKKPGSSVKVSCKASGGTFSSYAISWVRQAPGQGLEWMGGIIPIFGTANYAQKFQGRVTITADESTSTAYMELSSLRSEDTAVYYCASGGDGYNYDYYYYGMDVWGQGTTVTVSSGGGGSGGGGSGGGGSSYELTQPPSVSVSPGQTATITCSGEKLGDKYSFWYQQKPGQSPVMVMYQDDQRPSGTPERFSGSNSGNTATLTISGTRATDEADYYCQAWDNSASVFGSGTKLTVL
3. 2020EP54-E12 scFv (scFv, also called 2020EP054-E12) scFv: EVQLVESGGGLVQPGGSLRLSCAVTGFIVSSNYMNWVRQAPGKGLEWVSVIYSGGTTYYADSVKGRFTISRDKSKNTLYLQMNNLRAEDTAMYYCATLGNDYGDYGTDYWGQGTLVTVSSGGGGSGGGGSGGGGSQLVLTQPPSVSVSPGQTASISCSGDRLGQKYTSWYQQRPGQSPVLIMYQDNKRPSGIPERFSGSNSGNTATLTISGIQSMDEADYYCQVWDSGSDHAVFGGGTQLTVL

Response line:
["215000 M⁻¹ s⁻¹", "614000 M⁻¹ s⁻¹", "51900 M⁻¹ s⁻¹"]
